Biological target: human cloned dopamine D4.2 receptors (Homo sapiens, UniProt P21917, DEL265-296)
Sequence (P21917 with tags, fused parts or gaps DEL265-296): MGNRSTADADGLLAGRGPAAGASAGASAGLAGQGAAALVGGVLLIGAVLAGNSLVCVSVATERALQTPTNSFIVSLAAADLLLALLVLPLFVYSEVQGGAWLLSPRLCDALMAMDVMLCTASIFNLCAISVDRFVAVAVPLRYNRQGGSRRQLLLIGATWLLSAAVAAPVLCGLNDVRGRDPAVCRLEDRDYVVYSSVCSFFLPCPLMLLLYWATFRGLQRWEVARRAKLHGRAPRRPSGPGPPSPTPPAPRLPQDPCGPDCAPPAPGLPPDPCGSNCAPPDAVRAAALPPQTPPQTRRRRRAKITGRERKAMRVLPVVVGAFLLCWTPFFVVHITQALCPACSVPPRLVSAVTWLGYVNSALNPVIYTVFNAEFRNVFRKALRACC
Assay: Inhibition of the binding of 3H-YM-09151-2 to human dopamine D4 receptors
Conditions: [3H]YM-09151-2 0.06 nM, membranes of CHO-cells; read-out: D4-bind. IC50
Measured IC50, listed per entry.
Remember to put the unit after the number in your answer.

// below: answered compounds
{"Compound": "Cc1c(N2CCCN(CCCc3c[nH]c4ccc(F)cc34)CC2)cccc1N1CC(C)OC(C)C1 (stereo not drawn)", "Value Observed": "26 nM"}
{"Compound": "CCN(CC)c1cccc(Oc2cccc(N3CCN(CCCCc4c[nH]c5ccc(F)cc45)CC3)c2C)c1", "Value Observed": "40 nM"}

q: Supply IC50 value. Item: CCN(CC)c1cccc(Oc2cccc(N3CCN(CCCc4c[nH]c5c(F)cc(F)cc45)CC3)c2C)c1
a: 12 nM
